The following compounds are listed with their measured inhibition values.
target: G-protein coupled receptor 55 (Homo sapiens); test: GPR55 antagonists blocking LPI-driven arrestin recruitment, primary screen, imaging, U2OS, beta-arrestin-GFP, LPI agonist (AID 2013); conditions: U2OS GPR55 beta-arrestin-GFP translocation imaging, LPI antagonism; at 10 µM; active compounds read high;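 note: U2OS cells stably carrying GPR55 and arrestin-GFP stimulated by 5 µM LPI near EC80; imaged beta-arrestin-GFP aggregate spots per cell after agonist stimulation; plate controls were LPI-stimulated DMSO wells for no effect and DMSO wells without LPI for full effect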
In all, about 290,000 compounds went through this assay and about 370 (0.13%) were called active. Only a selection was taken, and actives are over-represented in it overall. Measured potencies and affinities stand elsewhere.
Return type: number; implicit unit %.

Field: example entries. Status: answers known.
CCc1nnc(NS(=O)(=O)c2ccc(NC(=O)/C=C/C(=O)O)cc2)s1
6.6
Cc1c([C@H]2[C@@H](CC#N)C2(C)C)c2ccccc2n1C
-0.3
Cc1cccc(Nc2nc(NCc3ccco3)c3ccccc3n2)c1
-2.1

Ask | For the compound shown here, O=C(O)c1cc(-c2ccc(/C=C3/SC(=S)N(Cc4ccccc4)C3=O)o2)ccc1Cl , give the reported inhibition.
Reply | 61.2

Ask | I'd like to know its inhibition. The compound in question is C#CCN1C(=O)S/C(=C\c2ccc(-c3ccc(Cl)c(C(=O)O)c3)o2)C1=O
Reply | -15.9
